Where these numbers come from: patent US10144746B2

Parameter IC50: see the listing below.
target: Human plasma kallikrein (Homo sapiens (Human))
Sequence (P03952 391-638): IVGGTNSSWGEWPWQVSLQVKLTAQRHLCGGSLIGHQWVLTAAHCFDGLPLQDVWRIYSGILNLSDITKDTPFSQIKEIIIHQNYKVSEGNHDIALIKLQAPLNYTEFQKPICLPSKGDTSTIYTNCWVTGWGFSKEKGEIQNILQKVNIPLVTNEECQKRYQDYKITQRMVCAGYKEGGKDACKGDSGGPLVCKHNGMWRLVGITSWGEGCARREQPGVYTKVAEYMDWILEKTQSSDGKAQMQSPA
Sequence (P03952 20-390 partner): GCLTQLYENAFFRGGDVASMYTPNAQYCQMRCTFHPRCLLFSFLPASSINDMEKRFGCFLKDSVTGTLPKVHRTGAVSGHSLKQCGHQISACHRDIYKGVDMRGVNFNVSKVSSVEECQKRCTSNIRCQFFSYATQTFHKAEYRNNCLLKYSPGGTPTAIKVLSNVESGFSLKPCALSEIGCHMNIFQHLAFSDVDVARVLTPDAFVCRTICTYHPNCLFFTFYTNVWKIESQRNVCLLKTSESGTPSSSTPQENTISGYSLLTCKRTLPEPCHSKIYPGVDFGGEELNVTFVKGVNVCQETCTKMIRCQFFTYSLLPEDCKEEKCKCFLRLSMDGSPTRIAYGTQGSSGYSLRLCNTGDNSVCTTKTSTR
measurement.description: In vitro plasma kallikrein inhibition assay (chromogenic substrate D-Pro-Phe-Arg-pNa, absorbance at 405 nm, IC50 determination)
Type: biochemical
run.conditions: read-out: KLKB1 pIC50 (converted)

>  <molecule>
CCc1cc(N)nc(C)c1CNC(=O)c1ccc2c(c1)[C@@H]1O[C@H]2c2ccc(-c3ccc(F)cc3F)cc21 (single isomer, unassigned)

>  <IC50>
12 nM

$$$$
>  <molecule>
N=C(N)c1cc(F)c(CNC(=O)c2ccc3c(c2)[C@@H]2O[C@H]3c3ccc(C4CC4)cc32)c(F)c1 (single isomer, unassigned)

>  <IC50>
0.759 nM

$$$$
>  <molecule>
Cc1nc(N)cc(C2CC2)c1CNC(=O)c1ccc2c(c1)[C@@H]1O[C@H]2c2ccc(-c3cc[n+]([O-])cc3F)cc21 (single isomer, unassigned)

>  <IC50>
34.7 nM

$$$$

* * *

# log10 IC50 values compiled below
target: Human plasma kallikrein (Homo sapiens (Human))
measurement.description: In vitro plasma kallikrein inhibition assay (chromogenic substrate D-Pro-Phe-Arg-pNa, absorbance at 405 nm, IC50 determination)
Type: biochemical
run.conditions: read-out: KLKB1 pIC50 (converted)
recorded.endpoint: log10 IC50 (log10 of the value in nM)

>  <compound>
N=C(N)c1ccc(CNC(=O)c2ccc3c(c2)[C@@H]2O[C@H]3c3ccc(N4CC(F)(F)C4)cc32)cc1 (single isomer, unassigned)

>  <recorded.endpoint>
log10 IC50

>  <test.result>
0.00

$$$$
>  <compound>
COc1ccc(-n2cnnn2)c(CNC(=O)c2ccc3c(c2)C2OC3c3ccc(-c4ccc(F)cc4F)cc32)c1F (racemic)

>  <recorded.endpoint>
log10 IC50

>  <test.result>
2.37

$$$$
>  <compound>
Cc1cc(N)nc(C)c1CNC(=O)c1ccc2c(c1)C1OC2c2cc(-c3ccccc3)c(-c3ccccc3)cc21 (racemic)

>  <recorded.endpoint>
log10 IC50

>  <test.result>
2.94

$$$$
>  <compound>
Cc1cc(N)nc(C)c1CNC(=O)c1ccc2c(c1)[C@@H]1O[C@H]2c2ccc(N(C)c3cccc(F)c3)cc21 (single isomer, unassigned)

>  <recorded.endpoint>
log10 IC50

>  <test.result>
1.43

$$$$
>  <compound>
Cc1cnn(Cc2ccc3c(c2)C2OC3c3ccc(C(=O)NCc4c(C)cc5c(c4C)CNC5)cc32)c1 (racemic)

>  <recorded.endpoint>
log10 IC50

>  <test.result>
1.86

$$$$
>  <compound>
Cc1cc(N)nc(C)c1CNC(=O)c1ccc2c(c1)[C@@H]1O[C@H]2c2ccc(Cn3ccccc3=O)cc21 (single isomer, unassigned)

>  <recorded.endpoint>
log10 IC50

>  <test.result>
0.00

$$$$

* * *

target: Human plasma kallikrein (Homo sapiens (Human))
measurement.description: In vitro plasma kallikrein inhibition assay (chromogenic substrate D-Pro-Phe-Arg-pNa, absorbance at 405 nm, IC50 determination)
Format: biochemical
run.conditions: read-out: KLKB1 pIC50 (converted)
recorded.endpoint: IC50 (µM)

>  <compound>
C=Cc1cc(N)nc(C)c1CNC(=O)c1ccc2c(c1)[C@@H]1O[C@H]2c2ccc(-c3ccc(F)cc3F)cc21 (single isomer, unassigned) [Example 219]

>  <target>
Human plasma kallikrein (Homo sapiens (Human))

>  <recorded.endpoint>
IC50

>  <unit.tag>
µM

>  <test.result>
0.017

$$$$
>  <compound>
Cc1ccc(-c2ccc3c(c2)C2OC3c3ccc(C(=O)NCc4c(C)cc5c(c4C)CNC5)cc32)c(C#N)c1 (racemic) [Example 137]

>  <target>
Human plasma kallikrein (Homo sapiens (Human))

>  <recorded.endpoint>
IC50

>  <unit.tag>
µM

>  <test.result>
0.437

$$$$
>  <compound>
CC(C)c1ccc2c(c1)[C@H]1O[C@@H]2c2ccc(C(=O)NCc3c(F)cc(C(=N)N)cc3F)cc21 (single isomer, unassigned) [Example 298]

>  <target>
Human plasma kallikrein (Homo sapiens (Human))

>  <recorded.endpoint>
IC50

>  <unit.tag>
µM

>  <test.result>
0.002

$$$$
>  <compound>
N=C(N)c1ccc(CNC(=O)c2ccc3c(c2)[C@@H]2O[C@H]3c3ccc(Oc4cccc(F)c4)cc32)cc1 (single isomer, unassigned) [Example 231]

>  <target>
Human plasma kallikrein (Homo sapiens (Human))

>  <recorded.endpoint>
IC50

>  <unit.tag>
µM

>  <test.result>
0.0339

$$$$
>  <compound>
Cc1cc(N)nc(C)c1CNC(=O)c1cc(F)c2c(c1)C1OC2c2cc(-c3ccc(F)cc3)cc(C)c21 (racemic) [Example 398]

>  <target>
Human plasma kallikrein (Homo sapiens (Human))

>  <recorded.endpoint>
IC50

>  <unit.tag>
µM

>  <test.result>
0.398

$$$$
>  <compound>
Cc1nc(N)cc(C2=CCOC2)c1CNC(=O)c1ccc2c(c1)[C@@H]1O[C@H]2c2ccc(-c3ccc(F)cc3F)cc21 (single isomer, unassigned) [Example 267]

>  <target>
Human plasma kallikrein (Homo sapiens (Human))

>  <recorded.endpoint>
IC50

>  <unit.tag>
µM

>  <test.result>
0.0977

$$$$
>  <compound>
Cc1cc(N)nc(C)c1CNC(=O)c1ccc2c(c1)[C@@H]1O[C@H]2c2ccc(-c3ccc(Cl)cc3C#N)cc21 (single isomer, unassigned) [Example 139]

>  <target>
Human plasma kallikrein (Homo sapiens (Human))

>  <recorded.endpoint>
IC50

>  <unit.tag>
µM

>  <test.result>
0.00302

$$$$
>  <compound>
Nc1noc2c(CNC(=O)c3ccc4c(c3)[C@@H]3O[C@H]4c4ccc(-c5ccccc5F)cc43)cccc12 (single isomer, unassigned) [Example 237]

>  <target>
Human plasma kallikrein (Homo sapiens (Human))

>  <recorded.endpoint>
IC50

>  <unit.tag>
µM

>  <test.result>
10

$$$$
>  <compound>
Cc1nc(N)cc(Cl)c1CNC(=O)c1ccc2c(c1)[C@@H]1O[C@H]2c2ccc(-c3ccc(F)cc3F)cc21 (single isomer, unassigned) [Example 192]

>  <target>
Human plasma kallikrein (Homo sapiens (Human))

>  <recorded.endpoint>
IC50

>  <unit.tag>
µM

>  <test.result>
0.977

$$$$
>  <compound>
CCN(c1ccc2c(c1)[C@H]1O[C@@H]2c2ccc(C(=O)NCc3c(C)cc(N)nc3C)cc21)c1ccccc1F (single isomer, unassigned) [Example 239]

>  <target>
Human plasma kallikrein (Homo sapiens (Human))

>  <recorded.endpoint>
IC50

>  <unit.tag>
µM

>  <test.result>
0.234

$$$$
>  <compound>
Nc1nccc2c(CNC(=O)c3ccc4c(c3)[C@@H]3O[C@H]4c4ccc(C(=O)c5ccccc5)cc43)cccc12 (single isomer, unassigned) [Example 226]

>  <target>
Human plasma kallikrein (Homo sapiens (Human))

>  <recorded.endpoint>
IC50

>  <unit.tag>
µM

>  <test.result>
0.0363

$$$$
>  <compound>
Nc1nccc2c(CNC(=O)c3ccc4c(c3)C3OC4c4ccc(-c5ccc(F)cc5F)cc43)cccc12 (racemic) [Example 148]

>  <target>
Human plasma kallikrein (Homo sapiens (Human))

>  <recorded.endpoint>
IC50

>  <unit.tag>
µM

>  <test.result>
0.0851

$$$$
